molecular target: Gal(b1-2)Gal; assay: glycan array binding signal (z-score within array); higher = stronger binding; conditions: glycan notation: IUPAC condensed, linker removed
Many of the other results were omitted from the sample, so the strongest signals are more common in it than they were.
Entries and their glycan array binding signal (z-score) values follow.

Please review the entries below; each comes with its answer.
BINDER | glycan array binding signal (z-score)
HFR-1 (Triticum aestivum) (protein) MSPQSFTLETTTTTPAAKGSDPSYFQSAPACHEMIQHKELLLHLYAYQNVQKTPDANQAVIVESKRPECFGILAANDWTVYDGPAHNANLVAHAQGLHLGASMAKENWFICFNMVFVNQRFTGSSFKVMGDFQGTAHNGEWAIVGGTGEFAYAQGVIAFKKTQQSERNARMELHVRAMCLSFLRPLLSLGDGSAVAKIGPWGKMSGELLDIPSTPQRLERITIRHGVVIDSLAFSFIDKAGEPYNVGPWGGRRGDNKDTIELAPSEIVTEVSGTVGIFAEDNVEYNAIASLTITTNHRPYGPFGETQSTPFSVPVQDNNNIVGFFACAGKYVEALGVYVRSPVST | 0.042
Onconase (Rana pipiens), P22069 (protein) QDWLTFQKKHITNTRDVDCDNIMSTNLFHCKDKNTFIYSRPEPVKAICKGIIASKNVLTTSEFYLSDCNVTSRPCKYKLKKSTNKFCVTCENQAPVHFVGVGSC | 2.63
Gal 4 (Homo sapiens), Q8K419 (protein) MAYVPAPGYQPTYNPTLPYKRPIPGGLSVGMSVYIQGMAKENMRRFHVNFAVGQDDGADVAFHFNPRFDGWDKVVFNTMQSGQWGKEEKKKSMPFQKGKHFELVFMVMPEHYKVVVNGNSFYEYGHRLPVQMVTHLQVDGDLELQSINFLGGQPAAAPYPGAMTIPAYPAGSPGYNPPQMNTLPVMTGPPVFNPRVPYVGALQGGLTVRRTIIIKGYVLPTARNFVINFKVGSSGDIALHLNPRIGDSVVRNSFMNGSWGAEERKVAYNPFGPGQFFDLSIRCGMDRFKVFANGQHLFDFSHRFQAFQMVDTLEINGDITLSYVQI | -0.201
Gal 1 (Mus musculus), P16045 (protein) MACGLVASNLNLKPGECLKVRGEVASDAKSFVLNLGKDSNNLCLHFNPRFNAHGDANTIVCNTKEDGTWGTEHREPAFPFQPGSITEVCITFDQADLTIKLPDGHEFKFPNRLNMEAINYMAADGDFKIKCVAFE | 0.468

Task item: Reported glycan array binding signal (z-score), binder HPA (Helix pomatia), Q2F1K8 (protein) MQAFYSGLLLLCVVAFAAAQRVQSGKIDCGNDAGWAKVPSDDPGRDNTRELAKNITFASPYCRPPVVLLSITQLDVEQSQNLRVIARLYSVSPTGFKASCYTWHNTKVYSMSISWISIENY : ____
Reply: -0.074

Task item: Reported glycan array binding signal (z-score), binder MLTim-4 (Mus musculus), Q6U7R4 (protein) MSKGLLLLWLVTELWWLYLTPAASEDTIIGFLGQPVTLPCHYLSWSQSRNSMCWGKGSCPNSKCNAELLRTDGTRIISRKSTKYTLLGKVQFGEVSLTISNTNRGDSGVYCCRIEVPGWFNDVKKNVRLELRRAT : ____
Reply: 1.47
